Assignment: determine reported protein stability index for the given variants.
B1: PLAGL1 (parent)
chain: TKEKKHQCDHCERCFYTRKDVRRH

Variants of: B1
runDescription: protein stability index of a GFP-peptide fusion (GPS, HEK-293T) (PSI 1-6); higher = more stable;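 also: lentivirally expressed fusions sorted by FACS into six bins by GFP to DsRed ratio, PSI derived from sequencing read proportions per bin multiplied by bin number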
experimentalSetup: c terminus: a fixed tail appended
Format: numeric value only, no unit, no commentary.

### Prompt Report protein stability index for "K2C" please.
### Response 3.25

### Prompt Report protein stability index for "Y16P" please.
### Response 3.13

### Prompt Report protein stability index for "D9F" please.
### Response 2.31

### Prompt Report protein stability index for "E3I" please.
### Response 3.01

### Prompt Report protein stability index for "D9V" please.
### Response 2.47

### Prompt Report protein stability index for "E3A" please.
### Response 3.31

### Prompt Report protein stability index for "Q7G" please.
### Response 2.89

### Prompt Report protein stability index for "D9E" please.
### Response 3.32

### Prompt Report protein stability index for "F15M" please.
### Response 4.05

### Prompt Report protein stability index for "T1R" please.
### Response 3.37

### Prompt Report protein stability index for "E12H" please.
### Response 3.34

### Prompt Report protein stability index for "V21K" please.
### Response 3.88

### Prompt Report protein stability index for "K19L" please.
### Response 2.9

### Prompt Report protein stability index for "R22Y" please.
### Response 3.69

### Prompt Report protein stability index for "C8F" please.
### Response 2.6

### Prompt Report protein stability index for "K4R" please.
### Response 3.29

### Prompt Report protein stability index for "D20Y" please.
### Response 3.28

### Prompt Report protein stability index for "T17W" please.
### Response 2.74

### Prompt Report protein stability index for "C14R" please.
### Response 3.16

### Prompt Report protein stability index for "K4M" please.
### Response 3.27

### Prompt Report protein stability index for "Y16G" please.
### Response 3.79

### Prompt Report protein stability index for "C11I" please.
### Response 3.65

### Prompt Report protein stability index for "R18I" please.
### Response 3.06

### Prompt Report protein stability index for "H24C" please.
### Response 3.31

### Prompt Report protein stability index for "T1S" please.
### Response 3.46

### Prompt Report protein stability index for "K2T" please.
### Response 3.67

### Prompt Report protein stability index for "D20T" please.
### Response 2.96

### Prompt Report protein stability index for "H10F" please.
### Response 2.36

### Prompt Report protein stability index for "T17R" please.
### Response 3.63

### Prompt Report protein stability index for "K19T" please.
### Response 3.4

### Prompt Report protein stability index for "T17L" please.
### Response 3.77

### Prompt Report protein stability index for "H6K" please.
### Response 3.19

### Prompt Report protein stability index for "R22I" please.
### Response 3.48

### Prompt Report protein stability index for "R22P" please.
### Response 3.62

### Prompt Report protein stability index for "T1M" please.
### Response 3.39

### Prompt Report protein stability index for "F15Y" please.
### Response 3.48

### Prompt Report protein stability index for "C14A" please.
### Response 3.11

### Prompt Report protein stability index for "K19A" please.
### Response 3.66

### Prompt Report protein stability index for "C8S" please.
### Response 3.48

### Prompt Report protein stability index for "K4T" please.
### Response 3.27

### Prompt Report protein stability index for "E3W" please.
### Response 2.73

### Prompt Report protein stability index for "C11G" please.
### Response 3.61

### Prompt Report protein stability index for "R13H" please.
### Response 3.87

### Prompt Report protein stability index for "R23A" please.
### Response 4.13

### Prompt Report protein stability index for "T1Y" please.
### Response 3.31

### Prompt Report protein stability index for "Y16M" please.
### Response 3.75

### Prompt Report protein stability index for "C14T" please.
### Response 3.6

### Prompt Report protein stability index for "R22W" please.
### Response 3.27

### Prompt Report protein stability index for "F15D" please.
### Response 2.98

### Prompt Report protein stability index for "C14P" please.
### Response 3.29
